# ASSAY_SUMMARY: yeast display, Sf9 membrane polyspecificity reagent, FACS + sequencing; frameworks hold sequencing errors
ENDPOINT_NAME: polyreactivity (PSR sort gate)

[[record]]
residues = "QVQLVESGGGLVQAGGSLRLSCAASGITFKRYAMGWYRQAPGKEREMVAAITGIGGSTYYADSVKGRFTISRDNAMNTVYLQMNSLKPEDTAVYYCAARNNKKYDYWGQGTQVTVSS"
endpoint_name = "polyreactivity (PSR sort gate)"
meas_value = "high polyreactivity"

[[record]]
residues = "QVQLVESGGGLVQAGGSLRLSCAASGITFGSYAMGWYRQAPGKEREFVAAISLSGGNTYYADSVKGRFTISRDNAKNTVYLQMNSRKPEDTAVYYCAADYDYSGYGYWGQGTQVTVSS"
endpoint_name = "polyreactivity (PSR sort gate)"
meas_value = "high polyreactivity"


====

# ASSAY_SUMMARY: yeast display, Sf9 membrane polyspecificity reagent, FACS + sequencing; frameworks hold sequencing errors
ENDPOINT_NAME: polyreactivity (PSR sort gate)

Previously resolved entries follow.
[[record]]
residues = "QVQLVESRGGLVQAGGSLRLSCAASGSIFYRNVMGWYTQAPRKEREWVAAISGRGGSTYYADSVKGRFTISRDNAKNTVYLQFTSLKPEDTAVYYCATELTYRHGYWGQGTQVTVSS"
meas_value = "high polyreactivity"

[[record]]
residues = "QVQLVESGGGLVQAGGSLRLSCAASGSIFEYYVMGWYRQAPGKERELVAAISYSGDSTYYADSVKGRFTISRDNAKNTVYLQMNSLKPEDTAVYYCAAQYTRVIPPGYDYWGQGTQVTVSS"
meas_value = "high polyreactivity"

[[record]]
residues = "QVQLVESGGGLVQAGGSLRLSCAASGRIFYQNAMGWYRQAPGKERELVAAISRGDSTYYADSVRGRFTSSRDNAKNTVFLQMNSLKPEDTAVYYCAARRFSYWGKYGYWGQGTQVTVSS"
meas_value = "high polyreactivity"

[[record]]
residues = "QDQLVESAGGLVQAGGSLRLSCAASGNTFSTNPLGSYRQAAGKERELVATISRNGGSTSYAVSVKGRFTISRDNAKNSDYLKMYSLKAEDTAVYYCAARSVRPGPFSDDYWGQGTQVTVSS"
meas_value = "low polyreactivity"

[[record]]
residues = "QVQLVESAGGLVQAGGSLRLSCAASGLIFRFNAMGWYRQAPGKERELVAAITRAGSTYYADSVKGRFTISRDNAKKTVYLQMNSLKPEDTAVYYCAAGQYRLPQRGYGYWGQGTQVTVSS"
meas_value = "high polyreactivity"


Proceeding to the next sequence to report its polyreactivity (PSR sort gate).
Please fill in: polyreactivity (PSR sort gate) reported for QVQLLESGGGLVQAGGSLRLSCAASGFTLAFNAMGWYRQAPGKERELVASITSSSGSTYYADSVKGRFTISRDNAKNTVYLQLNSLKPEDTAVYYCARDLAIPQVLSQPIFGYWGQGTQVTVSS = low polyreactivity

====

# ASSAY_SUMMARY: yeast display, Sf9 membrane polyspecificity reagent, FACS + sequencing; frameworks hold sequencing errors
ENDPOINT_NAME: polyreactivity (PSR sort gate)

Here are 4 sequences together with their reported answers.
[[record]]
residues = "QVQLVESGGRLVQAGGSLRLSSAASGRIFASNAMGWYRQAPGKERELVAAIDQGGGSTYYADSVKGRFTISRDNAKNTVYLQMNSLKPEDTAVYYCAADYITAYPRLYNYWGQGTQVTVSS"
meas_value = "low polyreactivity"

[[record]]
residues = "QVQLVESGGGLVQAGGSLRLSCAASGRIFYLKVMGWYRQEPGKERELVAAITRRDVTTYADSVKGRFTISRDNAKNTVYLQMNSLKPEDTAVYYCNADSPSLSGDYWGQGTQVTVSS"
meas_value = "low polyreactivity"

[[record]]
residues = "QVQLVESGGGLVQAGGSLRLSCAASGITFSGYAMGWYRQAPGKERDFVAGISYSGGSTYYADSVKGRFTISRDNAKNTVYLQMNSLKPEDTAVYYCAAYFGHYWRYYYWGQGTQVTVSS"
meas_value = "high polyreactivity"

[[record]]
residues = "QVQLVESGGGLVQAGGSLRLSCAASGRIFTRNAMGWYRQAPGKEREFVAAISWSGGSTYYADSVKGRFTISRDNAKNTVDLQMNSLKPEDTAVYYCSAKNSGGYVSWYDYWGQGTQVTVSS"
meas_value = "low polyreactivity"


Quick note, polyreactivity (PSR sort gate) for QVQLVESGGGLVQAGGSLRLSCAASGSIFGPYVMGWYRQAPGKEREFVAAIRGSGGSTYYADSVKGRFTISRDNAKNTVYLQMNSLKPEDTAVYYCNARLKYTLYYYWGQGTQVTVSS landed at high polyreactivity

====

# ASSAY_SUMMARY: yeast display, Sf9 membrane polyspecificity reagent, FACS + sequencing; frameworks hold sequencing errors
ENDPOINT_NAME: polyreactivity (PSR sort gate)

[[record]]
residues = "QVQLVESGGGLVQAGGCLRLSCAPSGFIFGGYAMGWDRPAPGKEREVVAAISSSGGSTYYADSVKGRFTISRDNAKNTVYLQMNSLKPEDTAVYYCAARIQSVSSGRWFDYWGQGTQVTVSS"
meas_value = "high polyreactivity"

[[record]]
residues = "QVQLVESGGGLVQAGGSLRLSCAASGRLFSRNVMGWSRQAPGKERELVAAISSSGSTYADSVKGRFTISRDNEKNTVYLQMNSLKPEDTAVSYCAAVIYLWGQGTQVTVSS"
meas_value = "high polyreactivity"


====

# ASSAY_SUMMARY: yeast display, Sf9 membrane polyspecificity reagent, FACS + sequencing; frameworks hold sequencing errors
ENDPOINT_NAME: polyreactivity (PSR sort gate)

Known polyreactivity (PSR sort gate) results, listed for orientation:
[[record]]
residues = "QVLLVESGGGLVQAGGSLRLSCAASGRTFVYYTMGWDRQAPGKERELVAAINWRGTSTYYADSVKGRFTISRDNAKNTVYLQMNSLKPEDTAVYYCYAERNAGFDYWGQGTQVTVSS"
meas_value = "high polyreactivity"

[[record]]
residues = "QVQLVESGGGLVQAGGSLRLSCAASGLIFLYYAMGSYRQAPGKERELVAAIRTNYADSVKGRFTISRDNAKNTVSLQMNSLKPEDTAVYYCIAVSGDSGDYWGQGTQVTVSS"
meas_value = "low polyreactivity"

[[record]]
residues = "QVQLVESGGGLVQAGGSLRLSCAASGFTLTLYAMGWYRQAPGKERELVARITSSGGITYYADSVKGRFTISRDNAKNTVYLQMISLKPEDTAVYYCAKEALIGPSRIILGEMGYWGQGTQVTVSS"
meas_value = "low polyreactivity"

[[record]]
residues = "QVQLVESGGGLVQAGGSLRLSCAASGNIFYRYPMGWYRQAPGKEREMVAAISRSGGSTYYADSVKGRFTISRDNAKNSVYLQRNSLKPEDTAVYYCAAEYQGFWWYGDYDYWGQGTQVTVSS"
meas_value = "high polyreactivity"

[[record]]
residues = "QVQLVESRGGLVQAGGSLRLSCAASGRTFGIYTMGWYRQAPGKERKLVAAISKRGSSTYYADSVKGRFTISRDNANNTVYLQMNSLKPEDTAVYYCAATRRYRYNWGQGSQVTVSS"
meas_value = "high polyreactivity"

[[record]]
residues = "QVQLVESGGGLVQAGGSLRLSCAASGITFTGYAMGWYRQAPGKERELVAAITSGGGRTYYADSVKGRFTISRDNAKNTVYLQMNSLKPEDTAVYYCATRYVTIVGYDYWGQGTQVTVSS"
meas_value = "high polyreactivity"

[[record]]
residues = "QVQLVESGGGLVQAGGSLRLSCAASGSTFTGYAMGWYRQAPGQERELVAAISRSGGSTYYADSVKGRFTISRDNAKNTVYLQMNSLKPEDTAVYYCNARGFTRYTVGRNYWGQGTQVTVSS"
meas_value = "high polyreactivity"

[[record]]
residues = "QVQLQESGGLVQAGGLRLSCEASGSVSYQEGMGWYRQATGKERELVATISFGANTNYADSVKGRFTISRDNAKNTVYLQMNSLKTEDTAVFYCAADSLFDDYYGYWGQGTQVTVSS"
meas_value = "low polyreactivity"

[[record]]
residues = "QVQLVESGGGLVQAGGSLRLSCAASGSTFHVYAMGWYRQAPGKEREFVASITTRGGSTYYADSVKGRFTISRDNAKNTVYLQMNSLKPEDTAVYYCNATPYPGGNGRWRFWKSYGYWGQGTQVTVSS"
meas_value = "high polyreactivity"

[[record]]
residues = "QVQLVESGAGLVQAGGRIRLSCAASGRTLYGNTMGWYRPAPWKERELVAAINWSGGRTRYADSVKGRFTNSRDNAKNTVYVEMNSVKPEDTAVYYCAATKRANHERFGSWGQGTQVTVSS"
meas_value = "high polyreactivity"


# sequence QVQLQESAGGLVQAGGSLRLRCSASGYISCDASMGWYRQAPGKERELAASITKGSSTNYADSVKGRFTIRDNAKNTVYLQMNSLKPEDSAVCYCAVTYPYWGDYTYWGQGTQVTVSS ; its polyreactivity (PSR sort gate) = low polyreactivity

Briefly, polyreactivity (PSR sort gate) measured for QVQLVESGGGLVQAGGSLRLSCAASGITFGIYVMGWYRQAPGKERELVATISRSDDNTYYADSVKGRFTISRDNAKNTVYLQMNSLKPEDTAVYYCAADGVISAWYSSRDDYWGQGTQVTVSS : low polyreactivity

Query QVQLVESGGGLVQAGGSLRLSCAASGRISYANSMGWYRQAPGKESELVASITYSAGSTYADSVKGRFTISRDNAKNTVYLQMNSLKPEDTAVYYCAKRPSQHYRSYLMDYWGQGTQVTVSS yields polyreactivity (PSR sort gate) of low polyreactivity

Documented polyreactivity (PSR sort gate) of QVQLVESGGGLVQAGGSLRLSCASSVRIFEVYAMGSYRQAPGKERELVADITYSGGSTYYADSVKGRFTISRDNAMNTVYLQMNSLKPEDTAVYYCAADVTFVHRYEYYRSYDYWGQGTQVTVSS : low polyreactivity

Input QVQLVESGGGLVQAGGSLRLSCAASGRSFRYNTMGWYRQAPGKERELVAAITKGAATTYYADSVKGRFTISRDNAKNTVYLKMTSLKPEDTAVYYCNAVYSRIVTQKYWGQGTQVTVSS . Output polyreactivity (PSR sort gate): high polyreactivity

Briefly, polyreactivity (PSR sort gate) measured for QVQLVESGGGLVQAGGSLRLSCAASGRTFAKYAMGWYRQAPGKEREFVAAITRGDTTNYADSVKGRFTISRDNAKNTVYLQMNSLKPEDTAVYYCNADSLYYDYQTVDVQALDYWGQGTQVTVSS : low polyreactivity

Kindly note the recorded polyreactivity (PSR sort gate) for QVQLVESGGGLVQAGGSLSLSCAASGIIIRRYAMGWYRQAPRKERELVATITWSGGSTYYADSVKGRFTISRDNAKNTVYLQMNSLKPEDTAVDYCAKLTSYRGRYNYWGQGTQVTVSS , which is high polyreactivity

Record summary for QVQLVESGGGLVQAGGSLRLSCAASGSTFGTNAMGRYRQAPGKERELVAVITFSGGSTYYADSVKGRFTISRDNAKNTVYLQMNSLKPEDTAVYYCAKDGFITFVYDHDYWGQGTQVTVSS : reported polyreactivity (PSR sort gate) = low polyreactivity

The reported polyreactivity (PSR sort gate) of the sequence QVQLVESGGGLVQAGGSLRLSCAASGFIFGYYVMGWSRQAPGKERELVAAISGSGGRTYYADSVKGRFTISRDNAKNTVYLQMNSLKPEDTAVYYCNAVAFYRDYNYWGQGTQVTVSS was high polyreactivity

Memo: QVQLVESGGGLDQAGGSLRLSCAASGFTFRRYAMGWYSQAPGKEREFVAAITTRGSNTYYADSVKGRFTISRDNAKNTVYLQMNSLKPEDTAVYYCAASYYPPGHYDYWGQGTQVTVSS , reported polyreactivity (PSR sort gate): high polyreactivity

Lookup result for QVQLVESGGGLVQAGCSLRLSCAASGSIVDPYAMGWYRQAPRKEREWVAAISGSGGSTYYADSVKGRFTISRDNAKNTVYLQMNSLKPVDTSVYYCAAADAWWGRRYKYYHWGQGTQVTVSS ; measured polyreactivity (PSR sort gate): low polyreactivity
